target-desc: KIT (Homo sapiens)
method-summary: Caliper mobility shift kinase inhibition assay, recombinant KIT
settings: recombinant KIT 0.9 nM, ATP 400 μM, incubation 17 hr (Table 2)
pIC50: −log10 of the molar value.
property-label: pIC50

{"smiles-input": "C=CC(=O)N1CCOC[C@H]1C(=O)NCCn1cnc2cnc(Nc3ncc(-c4ncncc4F)s3)cc21", "pIC50": "> 9.00"}
{"smiles-input": "C=CC(=O)N1C[C@H](O)C[C@H]1C(=O)NCCn1cnc2cnc(Nc3ncc(-c4ncccc4F)s3)cc21", "pIC50": "8.00 to 9.00"}
{"smiles-input": "CN(C)C/C=C/C(=O)N1CC[C@H](O)[C@H]1C(=O)NCCn1cnc2cnc(Nc3ncc(-c4ncccc4F)s3)cc21", "pIC50": "> 9.00"}

Requested read-out: pIC50. Entry: C=CC(=O)N1CCOC[C@H]1C(=O)NCCn1cnc2cnc(Nc3ncc(-c4ccncc4)s3)cc21 8.00 to 9.00

Requested read-out: pIC50. Entry: C=C(F)C(=O)N1C[C@H](O)C[C@H]1C(=O)NCCn1cnc2cnc(Nc3ncc(-c4ncccc4F)s3)cc21 7.00 to 8.00

Requested read-out: pIC50. Entry: C=CC(=O)N1CC[C@H]1C(=O)NCCn1cnc2cnc(Nc3ncc(-c4ncccc4F)s3)cc21 > 9.00

Requested read-out: pIC50. Entry: CN(C)C/C=C/C(=O)N1C[C@H](O)C[C@H]1C(=O)NCCn1cnc2cnc(Nc3ncc(-c4ncccc4F)s3)cc21 > 9.00

Requested read-out: pIC50. Entry: C=CC(=O)N1CCC[C@H]1C(=O)NCCn1cnc2cnc(Nc3ncc(-c4ccc(F)cc4)s3)cc21 > 9.00

====

target-desc: FLT3 (Homo sapiens, UniProt P36888)
Sequence (P36888 27-993): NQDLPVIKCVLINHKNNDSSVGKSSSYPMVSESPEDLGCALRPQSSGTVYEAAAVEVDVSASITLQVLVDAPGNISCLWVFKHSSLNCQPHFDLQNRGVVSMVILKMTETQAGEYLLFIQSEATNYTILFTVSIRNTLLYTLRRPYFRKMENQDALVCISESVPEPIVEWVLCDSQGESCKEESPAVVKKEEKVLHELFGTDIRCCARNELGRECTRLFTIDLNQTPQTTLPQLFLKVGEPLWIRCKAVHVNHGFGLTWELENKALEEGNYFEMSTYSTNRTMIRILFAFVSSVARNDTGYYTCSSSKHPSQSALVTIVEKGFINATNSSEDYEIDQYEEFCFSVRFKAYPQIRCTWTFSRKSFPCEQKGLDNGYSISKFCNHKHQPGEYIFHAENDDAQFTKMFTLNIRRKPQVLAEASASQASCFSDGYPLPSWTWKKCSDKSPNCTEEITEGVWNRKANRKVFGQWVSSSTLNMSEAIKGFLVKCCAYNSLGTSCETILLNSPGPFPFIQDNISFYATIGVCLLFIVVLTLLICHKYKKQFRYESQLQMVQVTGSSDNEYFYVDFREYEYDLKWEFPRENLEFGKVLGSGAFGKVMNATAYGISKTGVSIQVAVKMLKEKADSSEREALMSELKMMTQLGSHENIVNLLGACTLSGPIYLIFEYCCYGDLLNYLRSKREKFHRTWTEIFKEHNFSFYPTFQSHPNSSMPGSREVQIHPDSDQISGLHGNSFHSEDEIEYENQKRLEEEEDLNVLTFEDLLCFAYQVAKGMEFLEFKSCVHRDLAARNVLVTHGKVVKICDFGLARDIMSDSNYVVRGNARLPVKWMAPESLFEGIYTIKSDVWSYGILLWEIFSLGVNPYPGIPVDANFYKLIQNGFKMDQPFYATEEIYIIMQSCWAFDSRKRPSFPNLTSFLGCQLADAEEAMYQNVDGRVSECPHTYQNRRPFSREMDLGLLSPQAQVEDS
method-summary: Caliper mobility shift kinase inhibition assay, recombinant FLT3
settings: recombinant FLT-3 0.1 nM, ATP 95 μM, incubation 3 hr, room temperature
property-label: IC50

Requested read-out: IC50. Entry: C/C=C\C(=O)N1CCC[C@H]1C(=O)NCCn1cnc2cnc(Nc3ncc(-c4ccc(F)cc4)s3)cc21 1 to 10 nM

Requested read-out: IC50. Entry: C=CC(=O)N1CCOC[C@H]1C(=O)NCCn1cnc2cnc(Nc3ncc(-c4ncccc4F)s3)cc21 < 1 nM

Requested read-out: IC50. Entry: C=CC(=O)N1C[C@H](O)C[C@H]1C(=O)NCCn1cnc2cnc(Nc3ncc(-c4ncccc4F)s3)cc21 < 1 nM

Requested read-out: IC50. Entry: C/C=C\C(=O)N1CCC[C@H]1C(=O)NCCn1cnc2cnc(Nc3ncc(-c4ncccc4F)s3)cc21 1 to 10 nM

Requested read-out: IC50. Entry: CN(C)C/C=C/C(=O)N1CCC[C@H]1C(=O)NCCn1cnc2cnc(Nc3ncc(-c4ccc(F)cc4)s3)cc21 < 1 nM

Requested read-out: IC50. Entry: C=CC(=O)N1CC[C@H](O)[C@H]1C(=O)NCCn1cnc2cnc(Nc3ncc(-c4ccc(F)cc4)s3)cc21 < 1 nM

Requested read-out: IC50. Entry: C=CC(=O)N1CC[C@H](O)[C@H]1C(=O)NCCn1cnc2cnc(Nc3ncc(-c4ncccc4F)s3)cc21 < 1 nM

====

target-desc: KIT (Homo sapiens, UniProt P10721)
Sequence (P10721 26-976): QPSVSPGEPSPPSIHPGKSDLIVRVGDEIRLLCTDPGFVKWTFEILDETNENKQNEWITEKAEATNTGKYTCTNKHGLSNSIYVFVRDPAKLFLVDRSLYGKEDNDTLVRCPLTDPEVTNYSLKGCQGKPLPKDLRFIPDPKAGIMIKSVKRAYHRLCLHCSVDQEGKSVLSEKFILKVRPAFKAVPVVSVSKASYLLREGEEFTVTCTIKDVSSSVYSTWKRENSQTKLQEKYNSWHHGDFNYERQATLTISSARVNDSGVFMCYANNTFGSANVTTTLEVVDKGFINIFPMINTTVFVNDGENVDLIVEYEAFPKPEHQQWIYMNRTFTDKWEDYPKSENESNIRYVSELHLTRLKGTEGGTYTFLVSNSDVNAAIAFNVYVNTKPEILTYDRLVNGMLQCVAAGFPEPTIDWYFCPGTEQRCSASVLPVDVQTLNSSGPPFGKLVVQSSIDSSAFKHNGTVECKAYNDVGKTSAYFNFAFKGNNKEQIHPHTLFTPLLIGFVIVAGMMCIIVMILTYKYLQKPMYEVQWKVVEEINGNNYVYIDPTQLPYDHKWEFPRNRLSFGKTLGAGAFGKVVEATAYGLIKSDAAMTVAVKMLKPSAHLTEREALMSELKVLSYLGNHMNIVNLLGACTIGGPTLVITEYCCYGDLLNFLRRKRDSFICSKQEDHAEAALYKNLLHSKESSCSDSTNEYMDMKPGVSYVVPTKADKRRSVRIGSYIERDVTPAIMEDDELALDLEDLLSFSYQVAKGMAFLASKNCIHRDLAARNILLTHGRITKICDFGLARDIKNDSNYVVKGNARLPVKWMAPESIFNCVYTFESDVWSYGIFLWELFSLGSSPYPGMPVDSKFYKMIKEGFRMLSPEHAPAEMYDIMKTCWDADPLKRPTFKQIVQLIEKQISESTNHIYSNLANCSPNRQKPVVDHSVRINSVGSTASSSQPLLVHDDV
method-summary: Caliper mobility shift kinase inhibition assay, recombinant KIT
settings: recombinant KIT 0.9 nM, ATP 400 μM, incubation 17 hr (Table 2)
pIC50: −log10 of the molar value.
property-label: pIC50

{"smiles-input": "C=C(F)C(=O)N1CCOC[C@H]1C(=O)NCCn1cnc2cnc(Nc3ncc(-c4ncccc4F)s3)cc21", "value": "8.00 to 9.00"}

Requested read-out: pIC50. Entry: CN(C)C/C=C/C(=O)N1CCOC[C@H]1C(=O)NCCn1cnc2cnc(Nc3ncc(-c4ncccc4F)s3)cc21 > 9.00

Requested read-out: pIC50. Entry: C/C=C\C(=O)N1CCC[C@H]1C(=O)NCCn1cnc2cnc(Nc3ncc(-c4ccc(F)cc4)s3)cc21 8.00 to 9.00

Requested read-out: pIC50. Entry: CN(C)C/C=C/C(=O)N1CCC[C@H]1C(=O)NCCn1cnc2cnc(Nc3ncc(-c4ccc(F)cc4)s3)cc21 8.00 to 9.00

Requested read-out: pIC50. Entry: C=CC(=O)N1CCC[C@H]1C(=O)NCCn1cnc2cnc(Nc3ncc(-c4ccncc4F)s3)cc21 > 9.00

Requested read-out: pIC50. Entry: C=CC(=O)N1CCC[C@H]1C(=O)NCCn1cnc2cnc(Nc3ncc(-c4ncccc4F)s3)cc21 > 9.00

Requested read-out: pIC50. Entry: C=CC(=O)N1CC[C@H](O)[C@H]1C(=O)NCCn1cnc2cnc(Nc3ncc(-c4ncccc4F)s3)cc21 > 9.00

Requested read-out: pIC50. Entry: C=CC(=O)N1CC[C@H](O)[C@H]1C(=O)NCCn1cnc2cnc(Nc3ncc(-c4ccc(F)cc4)s3)cc21 > 9.00

Requested read-out: pIC50. Entry: C/C=C\C(=O)N1CCC[C@H]1C(=O)NCCn1cnc2cnc(Nc3ncc(-c4ncccc4F)s3)cc21 6.00 to 7.00

====

target-desc: FLT3 (Homo sapiens)
method-summary: Caliper mobility shift kinase inhibition assay, recombinant FLT3
settings: recombinant FLT-3 0.1 nM, ATP 95 μM, incubation 3 hr, room temperature
Method: Compounds' inhibition of recombinant kinases (FLT3, KIT) was measured using Caliper mobility shift assay, which is based on the difference in capillary electrophoresis mobility of a fluorescent-tagged peptide as a result of a phosphorylation by the kinase under study. […]
pIC50: −log10 of the molar value.
property-label: pIC50

Sample records with pIC50:
{"molecule": "C=CC(=O)N1CC[C@H]1C(=O)NCCn1cnc2cnc(Nc3ncc(-c4ncccc4F)s3)cc21 [Example 7]", "value": "> 9.00"}
{"molecule": "C=C(F)C(=O)N1CCC[C@H]1C(=O)NCCn1cnc2cnc(Nc3ncc(-c4ncccc4F)s3)cc21 [Example 10]", "value": "8.00 to 9.00"}

Requested read-out: pIC50. Entry: C=CC(=O)N1CCC[C@H]1C(=O)NCCn1cnc2cnc(Nc3ncc(-c4ncccc4F)s3)cc21 [Example 9] > 9.00

Requested read-out: pIC50. Entry: CN(C)C/C=C/C(=O)N1C[C@H](O)C[C@H]1C(=O)NCCn1cnc2cnc(Nc3ncc(-c4ncccc4F)s3)cc21 [Example 20] > 9.00

Requested read-out: pIC50. Entry: C=C(F)C(=O)N1C[C@H](O)C[C@H]1C(=O)NCCn1cnc2cnc(Nc3ncc(-c4ncccc4F)s3)cc21 [Example 19] 8.00 to 9.00

Requested read-out: pIC50. Entry: C=CC(=O)N1CCC[C@H]1C(=O)NCCn1cnc2cnc(Nc3ncc(-c4ccc(F)cc4)s3)cc21 [Example 5] > 9.00

Requested read-out: pIC50. Entry: C=CC(=O)N1C[C@H](O)C[C@H]1C(=O)NCCn1cnc2cnc(Nc3ncc(-c4ccc(F)cc4)s3)cc21 [Example 13] > 9.00

Requested read-out: pIC50. Entry: C=C(F)C(=O)N1CCOC[C@H]1C(=O)NCCn1cnc2cnc(Nc3ncc(-c4ncccc4F)s3)cc21 [Example 16] 8.00 to 9.00

Requested read-out: pIC50. Entry: C=CC(=O)N1CCOC[C@H]1C(=O)NCCn1cnc2cnc(Nc3ncc(-c4ccncc4)s3)cc21 [Example 1] > 9.00

Requested read-out: pIC50. Entry: C=CC(=O)N1C[C@@H](O)C[C@H]1C(=O)NCCn1cnc2cnc(Nc3ncc(-c4ccc(F)cc4)s3)cc21 [Example 14] > 9.00

Requested read-out: pIC50. Entry: C=CC(=O)N1CCC[C@H]1C(=O)NCCn1cnc2cnc(Nc3ncc(-c4ccncc4F)s3)cc21 [Example 8] > 9.00

Requested read-out: pIC50. Entry: CN(C)C/C=C/C(=O)N1CC[C@H](O)[C@H]1C(=O)NCCn1cnc2cnc(Nc3ncc(-c4ncccc4F)s3)cc21 [Example 26] > 9.00

Requested read-out: pIC50. Entry: CN(C)C/C=C/C(=O)N1CCOC[C@H]1C(=O)NCCn1cnc2cnc(Nc3ncc(-c4ncccc4F)s3)cc21 [Example 17] > 9.00

Requested read-out: pIC50. Entry: C=CC(=O)N1CCOC[C@H]1C(=O)NCCn1cnc2cnc(Nc3ncc(-c4ncncc4F)s3)cc21 [Example 22] > 9.00

Requested read-out: pIC50. Entry: C=CC(=O)N1C[C@H](O)C[C@H]1C(=O)NCCn1cnc2cnc(Nc3ncc(-c4ncncc4F)s3)cc21 [Example 21] 8.00 to 9.00

Requested read-out: pIC50. Entry: C=C(F)C(=O)N1CCC[C@H]1C(=O)NCCn1cnc2cnc(Nc3ncc(-c4ccc(F)cc4)s3)cc21 [Example 4] 8.00 to 9.00
